target: GluR6a (Rattus norvegicus, UniProt P42260); assay: Whole-cell patch clamp recordings, transfected HEK-293-T/17 cells, Example 2; conditions: 10 mM glutamate in continued presence of analog; read-out: IC50 inhibition of glutamate-evoked currents, GluR6a
Sequence (P42260 32-908): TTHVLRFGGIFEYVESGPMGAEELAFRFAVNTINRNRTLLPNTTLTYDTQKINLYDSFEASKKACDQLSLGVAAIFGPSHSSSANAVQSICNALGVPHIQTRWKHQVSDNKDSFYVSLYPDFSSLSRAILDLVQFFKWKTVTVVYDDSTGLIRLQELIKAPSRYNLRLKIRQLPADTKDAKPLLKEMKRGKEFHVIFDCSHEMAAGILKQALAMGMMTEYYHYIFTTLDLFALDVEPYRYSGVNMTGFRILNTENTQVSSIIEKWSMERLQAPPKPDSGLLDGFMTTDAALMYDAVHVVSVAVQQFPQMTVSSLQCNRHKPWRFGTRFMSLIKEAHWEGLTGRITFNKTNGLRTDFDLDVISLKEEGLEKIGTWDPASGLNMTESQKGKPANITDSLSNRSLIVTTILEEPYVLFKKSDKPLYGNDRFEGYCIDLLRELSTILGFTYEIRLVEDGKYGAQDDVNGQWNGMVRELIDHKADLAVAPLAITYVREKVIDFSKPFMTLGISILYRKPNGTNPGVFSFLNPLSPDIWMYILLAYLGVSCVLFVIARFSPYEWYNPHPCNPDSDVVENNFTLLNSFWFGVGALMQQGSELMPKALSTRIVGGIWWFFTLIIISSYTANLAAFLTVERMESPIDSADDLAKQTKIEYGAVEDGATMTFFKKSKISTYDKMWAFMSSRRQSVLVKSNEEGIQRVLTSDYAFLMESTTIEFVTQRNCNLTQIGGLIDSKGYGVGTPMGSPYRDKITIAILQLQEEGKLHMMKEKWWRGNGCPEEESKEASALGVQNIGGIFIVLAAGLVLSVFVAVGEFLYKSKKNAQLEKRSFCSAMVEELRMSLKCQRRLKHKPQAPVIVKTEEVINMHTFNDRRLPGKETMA
parameter-measured: pIC50
The quantity pIC50 is defined as the negative base-10 logarithm of the molar concentration.

Given the entry N[C@@H](C[C@@]1(C(=O)O)CC2OCC(O)C(O)C2O1)C(=O)O (single isomer, unassigned) [2,4-epi-neoDH, 2,4-epi-neodysiherbaine] , report its measured pIC50.
4.13

====

target: GluR1 (Rattus norvegicus); construct: expressed in transfected cells; host or cells: COS-7 or HEK-T/17; test: Radioligand displacement ([3H]AMPA), Example 1; assay type: binding
Sequence (P19490 19-907 isoform P19490-2 limits assumed): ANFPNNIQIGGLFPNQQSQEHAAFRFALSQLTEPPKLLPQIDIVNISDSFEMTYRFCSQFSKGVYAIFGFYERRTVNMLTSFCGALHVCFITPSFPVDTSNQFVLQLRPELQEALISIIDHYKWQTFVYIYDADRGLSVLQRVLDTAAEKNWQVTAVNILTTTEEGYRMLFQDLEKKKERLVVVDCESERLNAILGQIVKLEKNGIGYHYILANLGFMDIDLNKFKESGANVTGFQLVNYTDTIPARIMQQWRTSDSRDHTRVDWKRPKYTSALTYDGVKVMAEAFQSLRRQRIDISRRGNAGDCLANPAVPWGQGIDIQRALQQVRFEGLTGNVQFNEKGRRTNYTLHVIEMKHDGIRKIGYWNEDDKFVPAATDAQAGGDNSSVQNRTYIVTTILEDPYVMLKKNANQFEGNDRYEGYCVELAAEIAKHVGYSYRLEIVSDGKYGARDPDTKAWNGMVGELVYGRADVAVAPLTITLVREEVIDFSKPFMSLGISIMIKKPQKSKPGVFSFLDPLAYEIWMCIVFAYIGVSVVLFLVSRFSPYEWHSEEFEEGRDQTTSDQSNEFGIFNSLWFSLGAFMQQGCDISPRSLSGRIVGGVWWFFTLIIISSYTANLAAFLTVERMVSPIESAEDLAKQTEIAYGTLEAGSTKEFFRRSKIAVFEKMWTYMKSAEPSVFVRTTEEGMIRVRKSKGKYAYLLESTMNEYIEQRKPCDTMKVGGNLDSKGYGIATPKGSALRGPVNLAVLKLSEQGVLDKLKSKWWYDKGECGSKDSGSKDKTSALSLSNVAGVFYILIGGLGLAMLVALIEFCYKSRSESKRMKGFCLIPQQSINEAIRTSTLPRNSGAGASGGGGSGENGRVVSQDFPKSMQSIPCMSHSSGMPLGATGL
parameter-measured: Ki

Reported Ki, compound N[C@@H](C[C@]1(C(=O)O)C[C@H]2OC[C@@H](O)C[C@H]2O1)C(=O)O [8-deoxy-neoDH] : ____
> 100 µM
